Experimental details: mRNA encapsulation by Qubit RNA HS dye fluorescence before and after Triton X-100 lysis
Assay type: physicochemical
Condition summary: Fluc mRNA/peptoid formulation, 5:1 mass ratio peptoid:cargo
# % Encapsulation (percentage of mRNA encapsulation) listing for each entry below
I only need the number, in %, no unit after it.

CCCCCCCCCCN(CC(N)=O)C(=O)CN(CCCCCCCCCC)C(=O)CN(CCCCCCCCCC)C(=O)CN(CCCCCCCCCC)C(=O)CN(CCCCCCCCCC)C(=O)CN(CCCCCCCCCC)C(=O)CN(CCCCCCCCCC)C(=O)CN(CCc1ccccc1)C(=O)CN(CCc1ccccc1)C(=O)CN(CCN)C(=O)CN(CCc1ccccc1)C(=O)CN(CCc1ccccc1)C(=O)CN(CCN)C(=O)CN(CCc1ccccc1)C(=O)CN(CCc1ccccc1)C(=O)CNCCN [Compound 23] ... 3.9
CCCCCCCCCCN(CC(N)=O)C(=O)CN(CCCCCCCCCC)C(=O)CN(CCN)C(=O)CN(CCN)C(=O)CN(CCN)C(=O)CN(CCN)C(=O)CN(CCN)C(=O)CN(CCN)C(=O)CN(CCN)C(=O)CN(CCN)C(=O)CNCCN [Compound 16] ... 85.4
CCCCCCCCCCN(CC(N)=O)C(=O)CN(CCCCCCCCCC)C(=O)CN(CCc1ccccc1)C(=O)CN(CCN)C(=O)CN(CCc1ccccc1)C(=O)CN(CCN)C(=O)CN(CCc1ccccc1)C(=O)CNCCN [Compound 13] ... 90.4
CCCCCCCCCCN(CC(N)=O)C(=O)CN(CCCCCCCCCC)C(=O)CN(CCCCCCCCCC)C(=O)CN(CCCCCCCCCC)C(=O)CN(CCc1ccccc1)C(=O)CN(CCc1ccccc1)C(=O)CN(CCNC)C(=O)CN(CCc1ccccc1)C(=O)CN(CCc1ccccc1)C(=O)CN(CCNC)C(=O)CN(CCc1ccccc1)C(=O)CN(CCc1ccccc1)C(=O)CN(CCNC)C(=O)CN(CCc1ccccc1)C(=O)CN(CCc1ccccc1)C(=O)CNCCNC [Compound 26] ... 35.7

Turning now to a further molecule:
Fill in the blank: the reported % Encapsulation (percentage of mRNA encapsulation) of CCCCCCCCCCN(CC(N)=O)C(=O)CN(CCCCCCCCCC)C(=O)CN(CCc1ccccc1)C(=O)CN(CCc1ccccc1)C(=O)CN(CCNC)C(=O)CN(CCc1ccccc1)C(=O)CN(CCc1ccccc1)C(=O)CN(CCNC)C(=O)CN(CCc1ccccc1)C(=O)CN(CCc1ccccc1)C(=O)CNCCNC [Compound 27] is ____.
50.9

====

Experimental details: Dynamic light scattering (DLS) of Fluc mRNA/peptoid formulations: particle size and polydispersity
Type: physicochemical
Condition summary: Fluc mRNA/peptoid complex, 5:1 mass ratio peptoid:cargo
Readout kind: Size (volume average particle size/diameter) (nm)
I only need the number, in nm, no unit after it.

Some solved entries appear below for comparison.
CCCCCCCCCCN(CC(N)=O)C(=O)CN(CCCCCCCCCC)C(=O)CN(CCCCCCCCCC)C(=O)CN(CCc1ccccc1)C(=O)CN(CCc1ccccc1)C(=O)CN(CCN)C(=O)CN(CCc1ccccc1)C(=O)CN(CCc1ccccc1)C(=O)CN(CCN)C(=O)CN(CCc1ccccc1)C(=O)CN(CCc1ccccc1)C(=O)CNCCN ... 296.7
CCCCCCCCCCN(CC(N)=O)C(=O)CN(CCCCCCCCCC)C(=O)CN(CCCCCCCCCC)C(=O)CN(CCCCCCCCCC)C(=O)CN(CCCCCCCCCC)C(=O)CN(CCCCCCCCCC)C(=O)CN(CCc1ccccc1)C(=O)CN(CCc1ccccc1)C(=O)CN(CCN)C(=O)CN(CCc1ccccc1)C(=O)CN(CCc1ccccc1)C(=O)CN(CCN)C(=O)CN(CCc1ccccc1)C(=O)CN(CCc1ccccc1)C(=O)CNCCN ... 748.2
CCCCCCCCCCN(CC(N)=O)C(=O)CN(CCCCCCCCCC)C(=O)CN(CCc1ccccc1)C(=O)CN(CCc1ccccc1)C(=O)CNCCN ... 367.9

Turning now to a further molecule:
Fill in the blank: the reported Size (volume average particle size/diameter) of `CCCCCCCCCCN(CC(N)=O)C(=O)CN(CCc1ccccc1)C(=O)CN(CCc1ccccc1)C(=O)CN(CCN)C(=O)CN(CCc1ccccc1)C(=O)CN(CCc1ccccc1)C(=O)CN(CCN)C(=O)CN(CCc1ccccc1)C(=O)CN(CCc1ccccc1)C(=O)CNCCN` is ____.
448.6
